- Type: physicochemical
- CONDITION_INFO: buffer
ASSAY_ENDPOINT: T1/2, temperature where 50% of the protein was unfolded, Buffer plus Fe2+ and aKG (°C)
Report only the number, with the unit °C understood.

{"columns": ["MOLECULE", "MEASURED_NUMBER"],
 "data": [
  ["MON-HT5: engineered oxygenase protein, amino acid sequence SEQ ID NO:28 (protein) MHAALTPLTNKYRFIDVQPLTGVLGAEITGVDLREPLDDSTWNEILDAFHTYQVIYFPGQAITNEQHIAFSRRFGPVDPVPLLKSIEGYPEVQMIRREANESGRVIGDDWHTDSTFLDAPPAAVVMRAIEVPEYGGDTGFLSMYSAWETLSPTMQATIEGLNVVHSATKVFGSLYQATNWRFSNTSVKVMDVDAGDRETVHPLVVTHPVTGRRALYCNQVYCQKIQGMTDAESKSLLQFLYEHATKFDFTCRVRWKKDQVLVWDNLCTMHRAVPDYAGKFRYLTRTTVAGDKPSR", 61]
]}

Value of measured T1/2, temperature where 50% of the protein was unfolded, Buffer plus Fe2+ and aKG for the entry MON-HT9: engineered oxygenase protein, amino acid sequence SEQ ID NO:40 (protein) MHAALTPLTNKYRFIDVQPLTGVLGAEITGVDLREPLDDSTWNEILDAFHTYQVIYFPAQQITNEQHISFSRRFGPVDPVPLLKSIEGYPEVQMIRREANESGRILGDDWHTDSTFLDAPPAAVVMRAIEVPEYGGDTGFLSMYSAWDTLSDTMKATIEGLNVVHSATRVFGSLYQAQNWRFSNTSVKVMDVDAGDRETVHPLVVSHPVTGRRALYCNQVYCQRIEGMTDAESKCLLQFLYEHATKFDFTCRVRWKKDQVLVWDNLCTMHRAVPDYAGKFRYLTRTTVAGDRPAR : 60
